As shown below, each of these compounds has a reported Relative rate value.
# Assay procedure: Relative rate of hydrolysis in squirrel monkey whole liver homogenates
# Assay type: ADME, tissue-based
# Measurement parameters: saimiri, tissue homogenate

Examples from the recorded data:
INSERT INTO assay_data (compound, value_type, readout_value) VALUES
  ('CC(CCCc1cccnc1)NC(=O)c1ccc2nc3ccc(C(C)C)cc3c(=O)n2c1 (racemic)', 'Relative rate', 0.49),
  ('CC(C)c1ccc2nc3ccc(C(=O)N[C@H](C)CCCc4cccnc4)cn3c(=O)c2c1', 'Relative rate', '< 0.01');

Turning now to a further record.
Request: Report Relative rate for CC(C)c1ccc2nc3ccc(C(=O)N[C@@H](C)CCCc4cccnc4)cn3c(=O)c2c1
Response: 0.26

###

# Tested on: Platelet-activating factor receptor (Canis familiaris)
# Assay procedure: Percent inhibition of binding of platelet activating factor (PAF) to dog platelets using [3H]PAF as radioligand at a concentration of 1 uM
# Measurement parameters: Canis lupus familiaris
Value type: inhibition (%)
Supply the numeric figure in %, leaving out any unit text.

INSERT INTO results (entry_smiles, unit_of_measurement, readout_value) VALUES
  ('Cc1cc2nc3ccc(C(=O)NCCCCc4cnc[n+](C)c4)cn3c(=O)c2cc1C', '%', 0),
  ('Cc1cc2nc3ccc(C(=O)NCCCCc4ccc[n+](C)c4)cn3c(=O)c2cc1C', '%', 0),
  ('CC(C)c1ccc2nc3ccc(C(=O)NCCCc4cccnc4)cn3c(=O)c2c1', '%', 5),
  ('CC(C)c1ccc2nc3ccc(C(=O)NCCCCCc4cccnc4)cn3c(=O)c2c1', '%', 9),
  ('CC(C)c1ccc2nc3ccc(CCCCCCc4cccnc4)cn3c(=O)c2c1', '%', 15),
  ('CC(C)c1ccc2nc3ccc(S(=O)(=O)NCCCCc4cccnc4)cn3c(=O)c2c1', '%', 7),
  ('CC(C)c1ccc2nc3ccc(CNCCCCc4cccnc4)cn3c(=O)c2c1', '%', 15),
  ('CC(C)c1ccc2nc3ccc(C(=O)NCCCCCCCc4cccnc4)cn3c(=O)c2c1', '%', 19);

Turning now to a further record.
Request: Report inhibition for Cc1cc2nc3ccc(C(=O)NCCCCc4ccccc4)cn3c(=O)c2cc1C
Response: 4

###

As shown below, each of these compounds has a reported Relative rate value.
# Species: Cavia porcellus
# Assay procedure: Relative rate of hydrolysis in guinea pig whole liver homogenates
# Type: ADME

Examples from the recorded data:
INSERT INTO assay_data (compound, readout_value) VALUES
  ('CC(C)c1ccc2nc3ccc(C(=O)NCCCCc4cccnc4)cn3c(=O)c2c1', 1),
  ('CC(C)c1ccc2nc3ccc(C(=O)N[C@H](C)CCCc4cccnc4)cn3c(=O)c2c1', 0.063),
  ('CC(C)c1ccc2nc3ccc(C(=O)N[C@@H](C)CCCc4cccnc4)cn3c(=O)c2c1', 0.5),
  ('CC(CCCc1cccnc1)NC(=O)c1ccc2nc3ccc(C(C)C)cc3c(=O)n2c1 (racemic)', 0.35);

Request: Report Relative rate for CC(C)c1ccc2nc3ccc(C(=O)NC(C)(C)CCCc4cccnc4)cn3c(=O)c2c1
Response: < 0.01
